Listed below: growth values for each entry.
System: SF-295 CNS
ASSAY_DETAILS: NCI-60 one-dose screen, 48 h (100 = growth as untreated, 0 = no growth, -100 = all killed)
SETUP_CONDITIONS: 10 µM unless noted
About 83,000 compounds went through this panel and 20% of them were active in at least one assay; those are over-represented in the sample as a whole.
PROPERTY_MEASURED: growth (%)

[
  {
    "COMPOUND": "CC(O)(CO)c1ccccc1 (stereo unspecified)",
    "OBSERVED_VALUE": 98.6
  },
  {
    "COMPOUND": "CN1CCCC1=Nc1ccccc1",
    "OBSERVED_VALUE": 96.7
  },
  {
    "COMPOUND": "O=C(CNCCO)Nc1ccc2ncnc(Nc3ccc(OCc4cccc(F)c4)c(Cl)c3)c2c1",
    "OBSERVED_VALUE": 95
  },
  {
    "COMPOUND": "CCOc1cc(CNc2ccc(N3CCOCC3)c(C(=O)O)c2)ccc1OC",
    "OBSERVED_VALUE": 104
  },
  {
    "COMPOUND": "NC(=S)N/N=C(\\c1ccc(Cl)cc1)C1CC1",
    "OBSERVED_VALUE": 83.1
  },
  {
    "COMPOUND": "CC(C)(C)CC(C)(C)Nc1c(-c2ccc3c(c2)OCO3)nc2cnccn12",
    "OBSERVED_VALUE": 86.2
  }
]

* * *

Test system: NCI-H460 lung
ASSAY_DETAILS: NCI-60 one-dose screen, 48 h (100 = growth as untreated, 0 = no growth, -100 = all killed)
SETUP_CONDITIONS: 10 µM unless noted
Compounds without any hit were thinned out: in the full panel of roughly 83,000, 20% have a hit.
PROPERTY_MEASURED: growth (%)

[
  {
    "MOLECULE": "NC(=O)c1cccc(-c2ccccc2N2CCCCC2)c1",
    "TARGET_ENTITY": "NCI-H460 lung",
    "PROPERTY_MEASURED": "growth",
    "UNITS_LABEL": "%",
    "OBSERVED_VALUE": 108
  },
  {
    "MOLECULE": "COc1ccc(C2=C(c3ccccc3)c3ccc(OC(C)=O)cc3OC2(C)C)cc1",
    "TARGET_ENTITY": "NCI-H460 lung",
    "PROPERTY_MEASURED": "growth",
    "UNITS_LABEL": "%",
    "OBSERVED_VALUE": 84.8
  },
  {
    "MOLECULE": "COc1cccc2cc(-c3cc4ccccc4[nH]3)/c(=N/C(=S)Nc3ccc(C)cc3)oc12",
    "TARGET_ENTITY": "NCI-H460 lung",
    "PROPERTY_MEASURED": "growth",
    "UNITS_LABEL": "%",
    "OBSERVED_VALUE": 51.1
  },
  {
    "MOLECULE": "CCC(C)N(CCNc1cc(OC)cc2cccnc12)CCC(C)C (stereo unspecified)",
    "TARGET_ENTITY": "NCI-H460 lung",
    "PROPERTY_MEASURED": "growth",
    "UNITS_LABEL": "%",
    "OBSERVED_VALUE": 78.3
  },
  {
    "MOLECULE": "C(=N\\Nc1ncc(-c2cc3cc4c(cc3o2)OCO4)s1)/c1c[nH]c2ccccc12",
    "TARGET_ENTITY": "NCI-H460 lung",
    "PROPERTY_MEASURED": "growth",
    "UNITS_LABEL": "%",
    "OBSERVED_VALUE": -27.2
  },
  {
    "MOLECULE": "Cc1ccc(Nc2cc(=S)nc(N)[nH]2)cc1C",
    "TARGET_ENTITY": "NCI-H460 lung",
    "PROPERTY_MEASURED": "growth",
    "UNITS_LABEL": "%",
    "OBSERVED_VALUE": 103
  }
]
